Tested on: B16-F10 cells
Protocol: Melanogenesis inhibition test
Assay type: cell-based, Mus musculus
Condition notes: sample concentration 0.2%; 3 days; OD 405 nm; tyrosine + α-MSH stimulated
Procedure: Melanogenesis Inhibition Test In the melanogenesis inhibition test, Kojic acid is used as the positive control. Compounds (II), (III), and (IV) and ascorbic acid derivative are evaluated regarding their whitening effect under a concentration of no cytotoxicity to test the melanogenesis inhibiting ability. B16-F10 B16-F10 cells are placed in a 96-well plate and each well comprises 5000 cells (5000 cells/well). […] The optical density of the test sample at 405 nm is measured. […]
Where a SMILES comes first, the peptide text is derived from it. [ ]: non-standard residue; d: D form. Sar = CNCC(=O)O
Value kind: melanin production rate % ± standard deviation (%)
Numbers only, in %.

Solved cases below.
### Prompt Give its melanin production rate % ± standard deviation value. Item: CC(=O)NCC(=O)NCCCC(=O)O [Compound (III)]
### Response 70.4

### Prompt What measured melanin production rate % ± standard deviation goes with CC(=O)NCC(=O)NCCC(=O)O [Compound (II)] ?
### Response 64.7

### Prompt Which melanin production rate % ± standard deviation value is on record for CCOC1=C(O)C(=O)O[C@@H]1[C@@H](O)CO [ethyl ascorbic acid] ?
### Response 86.4

### Prompt Fill in the blank: the reported melanin production rate % ± standard deviation of CC(=O)NCC(=O)N(C)CC(=O)O [Compound (IV)] (Ac-Gly-[Sar]-OH) is ____.
### Response 60.8

For each of the molecules below, state melanin production rate % ± standard deviation.
1. O=C1O[C@H]([C@@H](O)CO)C(O)=C1OP(=O)([O-])[O-].[Mg+2] [ascorbic acid 2-phosphate magnesium]
2. O=C1O[C@H]([C@@H](O)CO)C(O)=C1O[C@H]1O[C@H](CO)[C@@H](O)[C@H](O)[C@H]1O [ascorbic acid 2-glucoside (AA2G), ascorbic acid 2-glucoside]
3. NCCC(=O)N[C@@H](Cc1cnc[nH]1)C(=O)O [carnosine]

### Response
1. 105.3
2. 86.8
3. 129

From: patent US8927499B2
